# TARGET OF ASSAY: Ubiquitin carboxyl-terminal hydrolase 7 (Homo sapiens) (UniProt Q93009)
# Sequence (Q93009 whole entry, looked up): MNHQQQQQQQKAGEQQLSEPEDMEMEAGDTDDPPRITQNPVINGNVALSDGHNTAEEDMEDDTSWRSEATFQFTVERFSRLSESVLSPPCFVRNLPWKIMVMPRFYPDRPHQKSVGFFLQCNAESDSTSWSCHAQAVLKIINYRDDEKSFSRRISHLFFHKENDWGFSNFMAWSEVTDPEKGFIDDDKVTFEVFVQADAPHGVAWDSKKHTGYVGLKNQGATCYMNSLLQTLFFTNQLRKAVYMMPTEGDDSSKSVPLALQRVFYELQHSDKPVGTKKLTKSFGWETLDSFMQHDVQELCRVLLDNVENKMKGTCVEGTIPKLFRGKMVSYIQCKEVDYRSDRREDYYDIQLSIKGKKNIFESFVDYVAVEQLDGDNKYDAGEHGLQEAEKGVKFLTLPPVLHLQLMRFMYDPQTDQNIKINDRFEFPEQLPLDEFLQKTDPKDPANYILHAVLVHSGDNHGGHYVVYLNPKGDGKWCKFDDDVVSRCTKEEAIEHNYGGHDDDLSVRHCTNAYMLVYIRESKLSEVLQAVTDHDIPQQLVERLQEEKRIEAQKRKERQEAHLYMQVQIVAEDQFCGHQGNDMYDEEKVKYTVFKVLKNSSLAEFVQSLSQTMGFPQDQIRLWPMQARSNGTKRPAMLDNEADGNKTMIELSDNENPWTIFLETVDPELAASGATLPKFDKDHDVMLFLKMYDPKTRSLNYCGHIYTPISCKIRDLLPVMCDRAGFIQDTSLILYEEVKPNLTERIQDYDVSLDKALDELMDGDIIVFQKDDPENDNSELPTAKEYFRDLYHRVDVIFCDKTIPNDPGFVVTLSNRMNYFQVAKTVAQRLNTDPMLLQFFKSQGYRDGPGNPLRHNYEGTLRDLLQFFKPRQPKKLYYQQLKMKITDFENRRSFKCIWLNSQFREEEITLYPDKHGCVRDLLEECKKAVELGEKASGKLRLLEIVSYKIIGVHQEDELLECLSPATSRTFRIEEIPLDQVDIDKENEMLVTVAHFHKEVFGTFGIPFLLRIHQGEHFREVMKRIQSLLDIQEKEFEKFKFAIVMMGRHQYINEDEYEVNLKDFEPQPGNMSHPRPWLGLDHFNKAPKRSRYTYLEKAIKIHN
# PROTOCOL SUMMARY: Ubiquitin-specific protease 7 DUB inhibitors, concentration-effect, biochemical, validation of primary hits (AID 1645861)
# EXPERIMENTAL SETUP: purified USP7, Ub-rhodamine cleavage fluorescence, 60 min
Activity calls are given as the source filed them.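 How the source made its calls: active means compounds whose peak USP7 inhibition across the dose series reached 30% or more; inactive means the rest.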
Give your call using only these classes: Yes (active), No (inactive)

Problem: Short answer needed: outcome of this test for COc1ccc(OCCn2c(C3CC(=O)N(c4cccc(C)c4)C3)nc3ccccc32)cc1 (stereo not drawn) ?
Solution: No

Problem: Field: outcome | Entry: O=c1cc(-c2ccc(O)c(O)c2)oc2cc(O[C@@H]3O[C@H](CO)[C@@H](O)[C@H](O)[C@H]3O)cc(O)c12
Solution: Yes

Problem: What is the recorded call for this compound in the test? NC(=O)c1ccccc1NC(=O)COc1ccc2c(c1)oc(=O)c1ccccc12
Solution: No

Problem: Look up the recorded call for COc1ccc(OC)c(NC(=O)Cn2c(=O)n(C3CCCCC3)c(=O)c3ccccc32)c1 in this test.
Solution: No

Problem: Call for entry COc1cccc(NC(=O)Cn2c3ccccc3n3c(=O)cc(-c4ccccc4)nc23)c1 :
Solution: No

Problem: Which outcome was assigned to CCOc1ccc(NC(=O)Cn2c(=O)n(CCCCCC(=O)NCc3ccc(F)cc3)c(=O)c3sccc32)cc1 in this test?
Solution: No

Problem: What was the test verdict on CC1=CC(=O)C(C2=C(O)C(=O)C(C)=CC2=O)=C(O)C1=O ?
Solution: No

Problem: Look up the recorded call for CN(C)[C@H]1C(=O)C(C(N)=O)=C(O)C2(O)C(=O)C3=C(O)c4c(O)cccc4C(C)(O)C3C(O)C12 (stereo partly drawn) in this test.
Solution: Yes

Problem: For COc1cc(Cl)c(NC(=O)C2Cc3ccccc3N2C(=O)c2ccccc2)c(OC)c1 (stereo not drawn) , which call appears in the assay record?
Solution: No

Problem: Recorded call for O=C(/C=C/c1c(F)cccc1Cl)N1CCc2ccccc2C1 ?
Solution: No

Problem: Test call for this compound, please: O=C(Cn1cc(C(=O)C(F)(F)F)c2cc(Br)ccc21)N1CCc2ccccc21
Solution: No

Problem: Tell me the assay call for NS(=O)(=O)c1ccc(CNC(=O)c2ccc(Cl)c(S(=O)(=O)Nc3cc(Cl)ccc3Cl)c2)cc1 please.
Solution: No

Problem: Answer briefly: the call reported for Cc1nnc(NC(=O)C2CCN(c3ccc(S(N)(=O)=O)cc3[N+](=O)[O-])CC2)o1 in this assay.
Solution: Yes
